# System: panel of cancer cell lines
# ASSAY NOTES: Cell viability (CellTiter-Glo) dose-response across cancer cell line panel;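 further: after 72 h compound incubation with CellTiter-Glo ATP readout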
# Type: cell-based, human
# STATED CONDITIONS: Homo sapiens, Detroit 562, cell line Detroit 562
RECORDED METRIC: EC50
Respond with a number, then the unit of measure.

EC50 for CC(C)C[C@H](NC(=O)[C@H](Cc1ccccc1)NC(=O)c1cnccn1)B(O)O [Bortezomib] is 11.4 nM

---

# System: panel of cancer cell lines
# ASSAY NOTES: Cell viability (CellTiter-Glo) dose-response across cancer cell line panel;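 further: after 72 h compound incubation with CellTiter-Glo ATP readout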
# Format: cell-based, human
# STATED CONDITIONS: Homo sapiens, FaDu, FaDu cells
RECORDED METRIC: EC50 (µM)
Write down the numeric answer in µM and omit the unit.

Measured on panel of cancer cell lines, `COCc1ccccc1NCc1ccc([C@@H]2[C@H](O)CCCc3cncn32)c(-c2ccccc2Cl)c1` has a documented EC50 of 10.2
